Assay: activity coefficient (dimensionless); of the first substance listed, at infinite dilution; xn = mol fraction of the nth substance listed
Settings: 308.15 K; Liquid; Chromatography; x1 = 0
PROPERTY: activity coefficient
When you answer, write just the number.

Challenge: Supply reported activity coefficient belonging to this molecule: CCCCCCC [heptane] + CCCCn1cc[n+](C)c1.N#C[S-]
Response given: 245

Challenge: Supply reported activity coefficient belonging to this molecule: Cc1cccc(C)c1 [1,3-dimethylbenzene] + CCCCn1cc[n+](C)c1.N#C[S-]
Response given: 5.91

Challenge: Supply reported activity coefficient belonging to this molecule: C1CCCCCC1 [cycloheptane] + CCCCn1cc[n+](C)c1.N#C[S-]
Response given: 51

Challenge: Supply reported activity coefficient belonging to this molecule: CCc1ccccc1 [ethylbenzene] + CCCCn1cc[n+](C)c1.N#C[S-]
Response given: 5.9

Challenge: Supply reported activity coefficient belonging to this molecule: CCCCCCCCCC [decane] + CCCCn1cc[n+](C)c1.N#C[S-]
Response given: 581

Challenge: Supply reported activity coefficient belonging to this molecule: C1CCCC1 [cyclopentane] + CCCCn1cc[n+](C)c1.N#C[S-]
Response given: 39.7

Challenge: Supply reported activity coefficient belonging to this molecule: CCCCO [butan-1-ol] + CCCCn1cc[n+](C)c1.N#C[S-]
Response given: 1.32

Challenge: Supply reported activity coefficient belonging to this molecule: c1ccccc1 [benzene] + CCCCn1cc[n+](C)c1.N#C[S-]
Response given: 2.15

====

Test: activity coefficient (dimensionless); of the first substance listed, at infinite dilution; xn = mol fraction of the nth substance listed
Details: 318.15 K; Liquid; Chromatography; x1 = 0
Cut-off 40 on activity coefficient, inclusive. At or above means 1.0; below means 0.0.

Take a look at these entries with their results.
Challenge: For this molecule, is measured activity coefficient 40 or higher? CCCO [propan-1-ol] + CCCCn1cc[n+](C)c1.N#C[S-]
Response given: 0.0

Challenge: For this molecule, is measured activity coefficient 40 or higher? C=CCCCCCC [oct-1-ene] + CCCCn1cc[n+](C)c1.N#C[S-]
Response given: 1.0

Challenge: For this molecule, is measured activity coefficient 40 or higher? C1CCCCC1 [cyclohexane] + CCCCn1cc[n+](C)c1.N#C[S-]
Response given: 1.0

Challenge: For this molecule, is measured activity coefficient 40 or higher? CCCCCC [hexane] + CCCCn1cc[n+](C)c1.N#C[S-]
Response given: 1.0

Challenge: For this molecule, is measured activity coefficient 40 or higher? CO [methanol] + CCCCn1cc[n+](C)c1.N#C[S-]
Response given: 0.0

Challenge: For this molecule, is measured activity coefficient 40 or higher? C#CCCCCCC [1-octyne] + CCCCn1cc[n+](C)c1.N#C[S-]
Response given: 0.0

Challenge: For this molecule, is measured activity coefficient 40 or higher? c1ccsc1 [thiophene] + CCCCn1cc[n+](C)c1.N#C[S-]
Response given: 0.0

Challenge: For this molecule, is measured activity coefficient 40 or higher? C=CCCCCC [1-heptene] + CCCCn1cc[n+](C)c1.N#C[S-]
Response given: 1.0

Challenge: For this molecule, is measured activity coefficient 40 or higher? C=CCCC [1-pentene] + CCCCn1cc[n+](C)c1.N#C[S-]
Response given: 1.0

Challenge: For this molecule, is measured activity coefficient 40 or higher? Cc1ccc(C)cc1 [1,4-dimethylbenzene] + CCCCn1cc[n+](C)c1.N#C[S-]
Response given: 0.0

Others:
Challenge: For this molecule, is measured activity coefficient 40 or higher? Cc1ccccc1 [toluene] + CCCCn1cc[n+](C)c1.N#C[S-]
Response given: 0.0

Challenge: For this molecule, is measured activity coefficient 40 or higher? Cc1ccccc1C [1,2-dimethylbenzene] + CCCCn1cc[n+](C)c1.N#C[S-]
Response given: 0.0

Challenge: For this molecule, is measured activity coefficient 40 or higher? CCO [ethanol] + CCCCn1cc[n+](C)c1.N#C[S-]
Response given: 0.0
